- assayed.target: L-lactate dehydrogenase A chain (Homo sapiens) (UniProt P00338)
- procedure.summary: qHTS assay for inhibitors of human lactate dehydrogenase;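 note: values are at about 110 or 230 µM; plate controls were DMSO wells for no effect and wells without enzyme for full effect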
- reported.conditions: purified LDHA, NADH/diaphorase-resazurin fluorescence; hits give low values
The whole screen tested about 480,000 compounds, of which about 740 (0.15%) were called active. Only a selection was taken, and actives are over-represented in it overall.
measurement.name: activity change (%)
Kindly answer with a numeric value in %, unit omitted.

input: Kindly indicate its recorded activity change. Item: COc1ccc(Oc2c(C)oc3cc(OCC(=O)N4CCC(C(N)=O)CC4)ccc3c2=O)cc1
output: -1.42

input: Please report the measured activity change for CN(Cc1ccc(OC(F)F)cc1)C(=O)c1nn(Cc2ccccc2)c(=O)c2ccccc12
output: 13.3

input: Output activity change of COc1ccc2oc(=O)c(S(=O)(=O)N3CCCCCC3)cc2c1
output: -6.37

input: Provide measured activity change value, entry: Cc1c(CC(=O)NCCCN2CCOCC2)c(=O)oc2cc(O)ccc12
output: 1.59

input: Please give the documented activity change of CC(Sc1nc2cc(S(=O)(=O)N3CCCCC3)ccc2o1)C(=O)Nc1cccc(Cl)c1 (stereo not drawn)
output: 6.97

input: Output activity change of CCCNC(=O)C(C)NC(=O)COc1ccccc1NC(C)=O (stereo not drawn)
output: -1.76

input: For the molecule CCOC(=O)C1=C(CN2CCN(C(=O)OC(C)(C)C)CC2)NC(=O)NC1c1ccccc1OCC (stereo not drawn) , give its reported activity change.
output: -21.6

input: Identify measured activity change corresponding to CCN(CC)CCNC(=O)c1ccc2nc(C)c(C)nc2c1
output: 1.31

input: Answer with reported activity change of CCOC(=O)c1cc(S(=O)(=O)Nc2cccc(C)c2C)[nH]n1
output: -1.21

input: Look up and state reported activity change for CCOC(=O)c1c(C)[nH]c(C(=O)COc2cc(Cl)ccc2Cl)c1C
output: -3.64

input: Provide activity change value for the following molecule: O=C(COc1ccccc1F)Nc1ccc(C(=O)OCc2cc(=O)n3nc(C4CC4)sc3n2)cc1
output: 0.0167

input: Identify the reported activity change for the following entry. O=C(NC1CCCC1)c1nc(-c2cccc3[nH]ccc23)no1
output: -3.9

input: Respond only with activity change recorded for Cc1cc(C)cc(Nc2nc3ccccc3nc2NS(=O)(=O)c2ccccc2)c1
output: -9.61

input: Tell us which activity change value is on record for CCCn1c(N)c(-c2csc(Nc3ccc(F)cc3)n2)c(=O)n(C)c1=O
output: 2.91

input: Identify measured activity change corresponding to c1ccc(-c2nc(-c3ccc4c(c3)OCCCO4)cs2)nc1
output: 5.7

input: Note activity change for the molecule shown: COc1ccc(OC)c(C2C(C#N)=C(N)Oc3cc(O)ccc32)c1 (stereo not drawn)
output: 6.17

input: Dear colleague, please send me the reported activity change for CCCNc1c(NS(=O)(=O)c2ccc(F)c(F)c2)c(=O)oc2ccccc12 when you can.
output: 0.151

input: State its activity change for this molecule: CC(=O)[C@@H]1SC(N)=C(C#N)[C@H]1c1cccs1
output: 12.5

input: Consider the molecule Cc1[nH]c2ccccc2c1C(=O)C(C)Sc1ccc2c(c1)OCCCO2 (stereo not drawn) and give its recorded activity change.
output: 7.43

input: Query activity change for Cc1ccc(C)c(N2CCN(C(=O)CCS(=O)(=O)c3cccc4nsnc34)CC2)c1
output: 0.345

input: State its activity change: Cc1ccccc1NC(=O)Cc1nnc(SCC(=O)c2ccc(C#N)cc2)n1C
output: 2.1

input: Report activity change, nothing else, for this molecule: c1ccc(COc2ccc(CNc3ccccc3)cc2)cc1
output: -2.65

input: Look up and report measured activity change for this entry: CC(NC(=O)c1nccnc1N)c1ccco1 (stereo not drawn)
output: -5.25

input: Please indicate activity change recorded for CCCn1nc(C(=O)N(C)Cc2ccc(OCC)cc2)c2ccccc2c1=O
output: -4.2

input: Given the molecule Cc1cc(C)n2ncc(-c3noc(C(=O)NC4CCCC4)n3)c2n1 , write its reported activity change.
output: -0.0013

input: Please give the documented activity change of Cc1ccc(C)c(-n2c3c(cc(C#N)c2=O)C(=O)CC(c2ccccc2)C3)c1 (stereo not drawn)
output: -0.429

input: // Input: Cc1[nH]n(-c2nc(-c3ccccc3)cs2)c(=O)c1CC(=O)Nc1cccc(Cl)c1 . Output its activity change only.
output: -4.25

input: Tell me measured activity change for CC1=C/C(=N\NC(N)=S)C(C)C1 (stereo not drawn) please.
output: 1.95

input: Return activity change (reported value) for this molecule: O=C(O)c1c(Br)c(Br)c(Br)c(Br)c1C1c2ccc(O)cc2Oc2cc(O)ccc21
output: -47.5

input: For the molecule CCc1nn2c(=O)cc(CN(CC)Cc3ccc(OCc4ccccc4)cc3)nc2s1 , report activity change.
output: -24.3

input: Give a short answer stating reported activity change for COc1ccc(NC(=O)CN(C)C(=O)c2nc(-c3ccccc3)oc2C)cc1 .
output: 7.53

input: Look up activity change of Cc1ccc(OCC(=O)OCc2cc(=O)n3nc(C4CC4)sc3n2)cc1 and report it.
output: -4.61

input: Please report the measured activity change for O=c1[nH]c(=O)n(Cc2ccco2)c2c1C(C(F)(F)F)(C(F)(F)F)N=C(c1ccco1)N2
output: -12.6

input: Identify the reported activity change for the following entry. CC(NC(=O)c1cc(Cl)sc1Cl)C12CC3CC(CC(C3)C1)C2 (stereo not drawn)
output: 1.53

input: Given Cn1c(SCC(=O)Nc2cccc(F)c2)nc2c(=O)[nH]cnc21 , respond with its activity change.
output: 11

input: Please give measured activity change of the following entry: O=S(=O)(c1ccc2c(c1)OCCO2)c1nc(-c2cccc(Cl)c2)oc1N1CCOCC1
output: -9.35

input: Annotate the molecule Fc1cccc(Cl)c1CNc1ccc(Cl)cc1 with its measured activity change.
output: 11.8

input: Determine its reported activity change: CCCCn1c(=O)[nH]c(=O)c2c1nc(COC(=O)C1(C#N)CCCC1)n2C
output: -5.02

input: Output measured activity change for this item: O=C1CN(CC(=O)Nc2c(Cl)cc(Cl)cc2Cl)CCN1
output: -9.74

input: Consider the molecule CC(=O)Nc1ccc(S(=O)(=O)NC2(C(F)(F)F)C(=O)Nc3c2c(=O)[nH]c(=O)n3Cc2ccccc2)cc1 (stereo not drawn) and give its recorded activity change.
output: -3.74

input: Item Cc1ccc(NC(=O)CN(C)C(=O)c2nc(-c3ccccc3)oc2C)cc1 : provide activity change
output: -4.78

input: Retrieve activity change measured for O=C(CN1CCN(CC(=O)c2c[nH]c3ccccc23)CC1)NC1CC1 and print it.
output: 0.902

input: Return reported activity change. Input molecule: COc1cc(Cl)c(C)cc1NC(=O)C(C)N1CCN(CCc2ccccc2)CC1 (stereo not drawn)
output: -11.8
